# Tested on: R848-induced IL-6 secretion in human peripheral blood mononuclear cells (PBMCs)
# ASSAY METHOD TEXT: Inhibition of R848-induced IL-6 secretion in human PBMCs (IL-6 ELISA)
# Format: cell-based
# APPLIED CONDITIONS: PBMC, R848 2.5 μg/mL, 20 h pre-incubation, 24 h stimulation
# label = bin(measured IC50), where bins are L: < 5 nM; M: ≥ 5 nM and < 9 nM; H: ≥ 9 nM

CN(C)c1cc2nn([C@H]3CC[C@H](CN4C[C@@H](F)[C@@H](n5cc6cc(C7CCC(=O)NC7=O)c(F)cc6n5)C4)CC3)cc2cc1NC(=O)c1cnn2cccnc12 (stereo partly shown) [TM-240]    L
CN(C)c1cc2nn([C@H]3CC[C@H](CN4CCC[C@@H](n5cc6cc(N7CCC(=O)NC7=O)ccc6n5)C4)CC3)cc2cc1NC(=O)c1cnn2cccnc12 [TM-211]    L
CN(C)c1cc2nn([C@H]3CC[C@H](CN4C[C@@H](F)[C@@H](n5cc6c(F)cc(N7CCC(=O)NC7=O)cc6n5)C4)CC3)cc2cc1NC(=O)c1cnn2cccnc12 [TM-219]    H

Would you kindly look at the next entry?
Data request: Which IC50 category applies to CN(C)c1cc2nn([C@H]3CC[C@H](CN4CCC(c5nc6cc(C7CCC(=O)NC7=O)cc(F)c6o5)CC4)CC3)cc2cc1NC(=O)c1cnn2cccnc12 (stereo partly shown) [TM-238] here?
Data returned: L

---

# SYSTEM TESTED: IRAK4 (Homo sapiens, UniProt Q9NWZ3)
# Construct: Effect of the Compounds on IRAK4 Protein Degradation in THP1 Cells; endogenous in cells; host or cells: THP-1 cells
# Sequence (Q9NWZ3 1-460): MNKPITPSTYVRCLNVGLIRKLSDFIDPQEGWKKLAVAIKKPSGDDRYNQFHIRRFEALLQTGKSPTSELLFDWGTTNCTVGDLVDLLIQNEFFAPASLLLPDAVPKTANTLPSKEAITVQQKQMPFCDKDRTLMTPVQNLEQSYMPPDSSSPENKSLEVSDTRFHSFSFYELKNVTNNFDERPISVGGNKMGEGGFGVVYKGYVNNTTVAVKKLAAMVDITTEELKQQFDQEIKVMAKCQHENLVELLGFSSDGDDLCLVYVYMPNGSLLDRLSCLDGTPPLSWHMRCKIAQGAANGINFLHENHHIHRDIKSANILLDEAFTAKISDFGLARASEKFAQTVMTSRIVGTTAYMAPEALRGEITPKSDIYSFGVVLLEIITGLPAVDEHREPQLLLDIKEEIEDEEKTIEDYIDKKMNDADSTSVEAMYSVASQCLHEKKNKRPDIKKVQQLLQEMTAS
# ASSAY METHOD TEXT: IRAK4 protein degradation in THP1 cells (Western blot)
# Format: cell-based
# APPLIED CONDITIONS: THP-1 cells, 24 h
TEST READOUT: DC50 (nM)
Just the number please, in nM, no unit attached.

CN(C)c1cc2nn([C@H]3CC[C@H](CN4CC[C@@H](n5cc6ccc(N7CCC(=O)NC7=O)cc6n5)[C@H](F)C4)CC3)cc2cc1NC(=O)c1cnn2cccnc12    1.33
CN(C)c1cc2nn([C@H]3CC[C@H](CN4CCC(n5cc6cc(F)c(C7CCC(=O)NC7=O)cc6n5)CC4)CC3)cc2cc1NC(=O)c1cnn2cccnc12 (some centres unmarked)    0.7

Lab note: measured DC50 of CN(C)c1cc2nn([C@H]3CC[C@H](CN4CC5(CCN(c6nc7ccc(C8CCC(=O)NC8=O)cn7n6)CC5)C4)CC3)cc2cc1NC(=O)c1cnn2cccnc12 (some centres unmarked) was 18.1

The recorded DC50 for entry CN(C)c1cc2nn([C@H]3CC[C@H](CN4CC[C@H](n5cc6cc(F)c(C7CCC(=O)NC7=O)cc6n5)[C@@H](F)C4)CC3)cc2cc1C(=O)Nc1cnn2cccnc12 (some centres unmarked) equals 1.41

Data origin: patent US20260216348A1
